As shown below, each of these molecules has a reported mean angular velocity of exposed larvae value.
system: Danio rerio larvae (Tropical 5D); assay: mean angular velocity of exposed larvae, light phase (angular velocity (unit not stated)); higher = more movement; details: 0.015 µM, exposure window: 6 hpf to 120 hpf, static, assay age: 120 hpf (5 dpf)
Readout Kind: mean angular velocity of exposed larvae

[[record]]
molecule = "C[Si](C)(C)C(F)(F)C(F)(F)C(F)(F)F"
readout_number = 0.0325

[[record]]
molecule = "NC(O)(C(F)(F)F)C(F)(F)F"
readout_number = 0.0444

[[record]]
molecule = "NC(=O)C(F)(F)C(F)(F)C(F)(F)C(F)(F)F [Nonafluoropentanamide]"
readout_number = 0.107

[[record]]
molecule = "O=S(=O)(O)C(F)(F)C(F)(F)C(F)(F)C(F)(F)C(F)(F)C(F)(F)F"
readout_number = 0.178


Reference source for all entries: the supplement of paper PMC11414989
